Origin of values: the OligoGym collection

Give calcium oscillation score for every item shown.
biological target: Tau; assay: rat primary cortical neurons, FLIPR, 25 uM ASO
Bases are written 5' to 3'; sugars and linkages follow in the same order, as letters with counts (s phosphorothioate, o phosphodiester; PS: all linkages phosphorothioate). The collection does not say whether C is 5-methylated. l = locked nucleic acid (LNA); d = 2'-deoxy (DNA)

(Q) Give recorded calcium oscillation score. TTAACCCTTGATCATATTTG (sugars l3 d14 l3, PS)
(A) 14.3 % of control

(Q) Using known records, supply calcium oscillation score for ACTAATATTAACACTAT (sugars l4 d9 l4, PS)
(A) 79.5 % of control

(Q) Please list calcium oscillation score recorded for the sequence ACCAGCTAGTGGTGCCACCT (sugars l3 d14 l3, PS)
(A) 20.2 % of control

(Q) Supply measured calcium oscillation score of TGCAAGAGTCACTGCACTGC (sugars l3 d14 l3, PS) in your reply.
(A) 23.8 % of control

(Q) Name the recorded calcium oscillation score of the item CAATCCTAAACAATGCC (sugars l2 d11 l4, PS) in your answer.
(A) 41.8 % of control

(Q) Answer with reported calcium oscillation score of AAAATACTCCTCCCTTA (sugars l3 d10 l4, PS)
(A) 67.1 % of control

(Q) Give the measured calcium oscillation score for TCTAGTTATACAGTTGGCCC (sugars l3 d14 l3, PS)
(A) 21.4 % of control

(Q) Quick one: give measured calcium oscillation score for TATTTCCAAATTCACTTTTA (sugars l5 d10 l5, PS)
(A) ≥ 200 % of control

(Q) Provide calcium oscillation score value for the following sequence: GCCAGGGACGTGGGTGATAT (sugars l3 d14 l3, PS)
(A) 0 % of control

(Q) For the sequence CCAGCGTGATCTTCCATCAC (sugars ldlllddddddddddlldll, PS) , report calcium oscillation score.
(A) 124 % of control

(Q) Recall and state the measured calcium oscillation score for CCTTTTCTACTCTACTCTCA (sugars l2 d16 l2, PS) .
(A) 62.1 % of control

====

Consider the following sequences; for each one, report its calcium oscillation score.
target: Tau; assay: rat primary cortical neurons, FLIPR, 25 uM ASO
Bases are written 5' to 3'; sugars and linkages follow in the same order, as letters with counts (s phosphorothioate, o phosphodiester; PS: all linkages phosphorothioate). The collection does not say whether C is 5-methylated. l = locked nucleic acid (LNA); d = 2'-deoxy (DNA)

(Q) Output calcium oscillation score of TTCCTGCAAATTCTCAA (sugars l4 d10 l3, PS)
(A) 61.7 % of control

(Q) For the sequence TTATTTCCAAATTCACTTTT (sugars llldlddddddddddldlll, PS) , give its measured calcium oscillation score value.
(A) 116 % of control

(Q) Return reported calcium oscillation score. Input sequence: CCTTGAAGTCAAGCTTCTCA (sugars l3 d14 l3, PS)
(A) 66.4 % of control

(Q) Give the measured calcium oscillation score for TTGCTCAGGTCAACTG (sugars l3 d10 l3, PS)
(A) 42.9 % of control

(Q) Specify measured calcium oscillation score for TCTTTGAACACCCCATCT (sugars l2 d14 l2, PS) .
(A) 41 % of control

(Q) Give calcium oscillation score for GATATTCATTCCCTCAC (sugars l2 d11 l4, PS)
(A) 57.2 % of control

(Q) Give the reported calcium oscillation score for this sequence. TTTAACTCAAATCAATTCTC (sugars l4 d12 l4, PS)
(A) 65.7 % of control

(Q) Look up and state reported calcium oscillation score for CCCTTAGACATAACACA (sugars l3 d12 l2, PS)
(A) 65.5 % of control

(Q) Find the measured calcium oscillation score of GCTCCAACCACACCTT (sugars l2 d11 l3, PS) and report it.
(A) 85 % of control

(Q) Please indicate calcium oscillation score recorded for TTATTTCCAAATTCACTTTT (sugars llddlldddddddddlldll, PS)
(A) 88.8 % of control

(Q) State its calcium oscillation score for this sequence: CTTTATTTCCAAATTCACT (sugars l3 d11 l1 d2 l2, PS)
(A) 140 % of control

(Q) Entry AACTGGTTTGTAGACT (sugars l3 d10 l3, PS) needs its calcium oscillation score filled in; supply it.
(A) 0 % of control

(Q) Provide only the value of recorded calcium oscillation score for CAGCTTGTGGGTTTCAATCT (sugars l3 d14 l3, PS)
(A) 0 % of control

(Q) Give a short answer stating reported calcium oscillation score for CATCGCTTCCAGTC (sugars l3 d8 l3, PS) .
(A) 116 % of control

(Q) // fetch calcium oscillation score given entry TTTACACCACACTGTC (sugars l3 d10 l3, PS)
(A) 83.3 % of control

(Q) Give the reported value of calcium oscillation score for this record: AAACTTTTACTCTGACT (sugars l4 d9 l4, PS)
(A) 59.4 % of control

(Q) State its calcium oscillation score: CCAATTAACCGAACTGCGAG (sugars l3 d14 l3, PS)
(A) 41.4 % of control

(Q) Give the value of calcium oscillation score reported for the following: GCAGGTATCCAGCCATATTT (sugars l3 d14 l3, PS)
(A) 29.4 % of control

(Q) Using known records, supply calcium oscillation score for CTGCTCAGCTAAGACCCTCA (sugars l3 d14 l3, PS)
(A) 4.03 % of control

(Q) Write down calcium oscillation score measured for item TTATACAGTTGGCCCTACCA (sugars l3 d14 l3, PS)
(A) 40.5 % of control

(Q) Name the recorded calcium oscillation score of the item TTGCAACTTTAACTCCA (sugars l4 d11 l2, PS) in your answer.
(A) 80.8 % of control

(Q) Give reported calcium oscillation score value for GCCTGATCACAAACCC (sugars l3 d10 l3, PS)
(A) 144 % of control

(Q) Provide measured calcium oscillation score value, entry: GAATATTACACCATCC (sugars l4 d8 l4, PS)
(A) 97 % of control
